assay-target: CAMKK2 (human) (UniProt Q96RR4)
Sequence (Q96RR4 whole entry, looked up): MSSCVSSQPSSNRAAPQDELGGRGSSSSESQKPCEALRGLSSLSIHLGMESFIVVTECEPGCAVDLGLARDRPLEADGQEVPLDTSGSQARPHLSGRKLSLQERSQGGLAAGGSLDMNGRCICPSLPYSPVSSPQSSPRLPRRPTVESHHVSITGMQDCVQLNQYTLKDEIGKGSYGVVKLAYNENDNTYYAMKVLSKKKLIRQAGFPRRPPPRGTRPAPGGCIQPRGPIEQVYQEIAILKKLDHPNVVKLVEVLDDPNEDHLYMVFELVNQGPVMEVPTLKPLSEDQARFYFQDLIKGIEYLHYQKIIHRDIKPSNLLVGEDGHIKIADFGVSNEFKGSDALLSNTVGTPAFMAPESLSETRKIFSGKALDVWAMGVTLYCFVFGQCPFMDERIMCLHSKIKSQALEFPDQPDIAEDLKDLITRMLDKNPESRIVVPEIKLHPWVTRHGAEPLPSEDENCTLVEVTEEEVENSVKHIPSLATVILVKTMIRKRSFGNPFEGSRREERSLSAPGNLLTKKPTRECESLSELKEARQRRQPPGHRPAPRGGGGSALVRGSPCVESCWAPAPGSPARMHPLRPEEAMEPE
assay-method-text: radiometric filter-binding kinase assay, Kinase HotSpot
run-conditions: compound 0.5 µM; ATP 10 µM
Checkbox rule: residual activity lower than 90% = true; residual activity not lower than 90% = false.

Nc1ncnc2[nH]nc(Nc3ccc(F)cc3)c12
true
CCN(CC)CCNC(=O)c1c(C)[nH]c(/C=C2\C(=O)Nc3ccc(F)cc32)c1C
true
CNC(=O)c1cc(Oc2ccc(NC(=O)Nc3ccc(Cl)c(C(F)(F)F)c3)cc2)ccn1
false
Cc1[nH]c(/C=C2\C(=O)Nc3ccc(S(=O)(=O)N(C)c4cccc(Cl)c4)cc32)c(C)c1C(=O)N1CCN(C)CC1
true
Nc1cccc(-c2cc3c(Oc4cccc(O)c4)ncnc3[nH]2)c1
false

[in] Criterion: residual activity strictly below 90%. Is it met by `Nc1ncnc2c1c(-c1ccc(Oc3ccccc3)cc1)cn2C1CCCC1` ?
[out] true

[in] I wonder whether `Oc1cccc(-c2nc(N3CCOCC3)c3oc4ncccc4c3n2)c1` has residual activity below 90%. Can you tell?
[out] true

[in] Hello, is residual activity of the following compound strictly smaller than 90%? `N#C/C(=C(/N)Sc1ccc(N)cc1)c1ccccc1C(F)(F)F`
[out] true

[in] Would you kindly verify if residual activity of `CC[n+]1c(/C=C/N(C)c2ccccc2)n(-c2ccccc2)c2ccc(-c3nc4ccccc4s3)cc21` is strictly less than 90%?
[out] false

[in] Take the compound `O=C(Nc1cccc(Nc2nccc(Nc3cccc(C(F)(F)F)c3)n2)c1)C1CC1` and say whether its residual activity is less than 90%.
[out] false

[in] Is residual activity of `CCN(CC)C(=O)c1ccc(Nc2nc(OCC3CCCCC3)c3nc[nH]c3n2)cc1` strictly below 90%?
[out] false

====

# residual activity per entry
assay-target: PRKCB2 (human)
assay-method-text: radiometric filter-binding kinase assay, Kinase HotSpot
run-conditions: compound 0.5 µM; ATP 10 µM
Give the number; % is assumed, so skip it.

N#C/C(=C(/N)Sc1ccc(N)cc1)c1ccccc1C(F)(F)F
103
O=S(=O)(c1cccc2cnccc12)N1CCCNCC1
101
O=C1NC(=O)C(c2cn(CCCn3ccnc3)c3ccccc23)=C1Nc1ccccc1
4.29
O=c1cc(N2CCOCC2)oc2c1ccc1ccccc12
99.9
CCN(CC)C(=O)c1ccc(Nc2nc(OCC3CCCCC3)c3nc[nH]c3n2)cc1
95
c1ccc(-c2n[nH]cc2-c2ccnc3ccccc23)nc1
92.1
Cc1ccc(Nc2nccc(N(C)c3ccc4c(C)n(C)nc4c3)n2)cc1S(N)(=O)=O
96.7
CC(=O)c1ccc(N2CCOCC2)cc1O
97.9
COc1cc2ncnc(Nc3cccc(Cl)c3)c2cc1OC
95.5
O=C1Nc2ccc(Cl)cc2/C1=C/c1cc(Cl)c(O)c(Cl)c1
97.5

[in] Need residual activity, item `CCN(CC)CCNC(=O)c1c(C)[nH]c(/C=C2\C(=O)Nc3ccc(Cl)cc32)c1C`
[out] 110

[in] residual activity lookup needed for `O=C(Nc1cccc(Nc2nccc(Nc3cccc(C(F)(F)F)c3)n2)c1)C1CC1` , thanks.
[out] 98

====

assay-target: NEK9 (human) (UniProt Q8TD19)
Sequence (Q8TD19 whole entry, looked up): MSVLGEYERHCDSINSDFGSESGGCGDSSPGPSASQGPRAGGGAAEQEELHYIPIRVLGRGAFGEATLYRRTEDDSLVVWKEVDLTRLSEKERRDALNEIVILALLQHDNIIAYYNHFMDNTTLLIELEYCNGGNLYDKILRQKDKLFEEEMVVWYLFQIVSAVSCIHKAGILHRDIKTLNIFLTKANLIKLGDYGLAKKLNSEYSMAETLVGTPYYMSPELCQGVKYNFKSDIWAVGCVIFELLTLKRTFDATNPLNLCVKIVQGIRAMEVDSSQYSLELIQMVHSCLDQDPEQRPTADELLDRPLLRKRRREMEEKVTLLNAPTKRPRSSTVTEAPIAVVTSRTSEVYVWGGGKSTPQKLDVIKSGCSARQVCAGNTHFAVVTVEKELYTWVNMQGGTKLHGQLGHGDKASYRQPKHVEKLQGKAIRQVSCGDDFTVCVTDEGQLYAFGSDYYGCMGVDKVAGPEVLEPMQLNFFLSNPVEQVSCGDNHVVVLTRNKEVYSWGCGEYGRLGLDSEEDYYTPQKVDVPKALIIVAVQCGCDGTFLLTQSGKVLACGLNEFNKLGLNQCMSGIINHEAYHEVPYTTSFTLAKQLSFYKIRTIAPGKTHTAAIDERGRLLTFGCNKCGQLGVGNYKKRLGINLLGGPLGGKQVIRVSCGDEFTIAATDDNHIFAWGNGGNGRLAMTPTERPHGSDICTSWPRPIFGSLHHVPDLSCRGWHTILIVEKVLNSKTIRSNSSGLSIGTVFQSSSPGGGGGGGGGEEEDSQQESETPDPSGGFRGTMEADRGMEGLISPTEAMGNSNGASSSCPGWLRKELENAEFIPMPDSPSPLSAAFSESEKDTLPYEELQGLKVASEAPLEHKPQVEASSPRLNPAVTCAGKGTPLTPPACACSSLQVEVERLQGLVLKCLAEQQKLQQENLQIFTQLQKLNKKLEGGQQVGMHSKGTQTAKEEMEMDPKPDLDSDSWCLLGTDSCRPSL
assay-method-text: radiometric filter-binding kinase assay, Kinase HotSpot
run-conditions: compound 0.5 µM; ATP 10 µM
Below: a set of entries, each annotated with reported residual activity.
Kindly provide the numeric value in % only, without the unit symbol.

Some entries whose results are on file:
CNC(=O)c1cc(Oc2ccc(NC(=O)Nc3ccc(Cl)c(C(F)(F)F)c3)cc2)ccn1
95.4
N#C/C(=C(/N)Sc1ccc(N)cc1)c1ccccc1C(F)(F)F
99.2

[in] Hello, I am looking for reported residual activity with NEK9 (human) (UniProt Q8TD19) for `COc1cc2ncnc(Nc3cccc(Cl)c3)c2cc1OC` . Could you help?
[out] 82.6

====

assay-target: TAOK3 (human) (UniProt Q9H2K8)
Sequence (Q9H2K8 whole entry, looked up): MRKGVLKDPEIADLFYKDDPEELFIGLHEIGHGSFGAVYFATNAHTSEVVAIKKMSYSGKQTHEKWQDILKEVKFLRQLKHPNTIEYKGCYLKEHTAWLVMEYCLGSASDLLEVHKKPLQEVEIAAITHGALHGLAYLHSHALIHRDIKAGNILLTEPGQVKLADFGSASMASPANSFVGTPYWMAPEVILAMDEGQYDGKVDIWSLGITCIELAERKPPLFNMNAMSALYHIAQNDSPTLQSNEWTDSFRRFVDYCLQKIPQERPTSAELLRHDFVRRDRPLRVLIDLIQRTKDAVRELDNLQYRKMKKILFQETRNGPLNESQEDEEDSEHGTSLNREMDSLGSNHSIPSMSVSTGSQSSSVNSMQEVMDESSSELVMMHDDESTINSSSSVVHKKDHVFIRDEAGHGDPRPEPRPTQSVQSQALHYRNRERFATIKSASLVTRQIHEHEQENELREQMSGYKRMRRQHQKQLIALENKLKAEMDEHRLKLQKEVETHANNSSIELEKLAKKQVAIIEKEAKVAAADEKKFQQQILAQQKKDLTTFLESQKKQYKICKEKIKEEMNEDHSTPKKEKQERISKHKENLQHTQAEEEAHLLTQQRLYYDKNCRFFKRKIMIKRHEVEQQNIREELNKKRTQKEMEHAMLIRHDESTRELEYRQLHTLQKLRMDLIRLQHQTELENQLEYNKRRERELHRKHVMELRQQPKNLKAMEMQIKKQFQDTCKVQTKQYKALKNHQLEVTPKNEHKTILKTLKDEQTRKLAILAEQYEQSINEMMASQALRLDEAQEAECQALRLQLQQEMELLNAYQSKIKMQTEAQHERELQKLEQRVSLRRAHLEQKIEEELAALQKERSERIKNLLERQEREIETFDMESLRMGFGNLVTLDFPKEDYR
assay-method-text: radiometric filter-binding kinase assay, Kinase HotSpot
run-conditions: compound 0.5 µM; ATP 10 µM
value-kind: residual activity (%)
Give the number; % is assumed, so skip it.

[in] Please look up its residual activity: `CCN(CC)CCNC(=O)c1c(C)[nH]c(/C=C2\C(=O)Nc3ccc(F)cc32)c1C`
[out] 82.9

[in] What residual activity value was documented for this molecule, `Nc1ccc2ncnc(NCCc3ccc(Oc4ccccc4)cc3)c2c1` ?
[out] 102

[in] # residual activity lookup, item `CC#CC(=O)Nc1cc2c(Nc3ccc(F)c(Cl)c3)ncnc2cn1`
[out] 110

====

assay-target: CSNK1E (human) (UniProt P49674)
Sequence (P49674 whole entry, looked up): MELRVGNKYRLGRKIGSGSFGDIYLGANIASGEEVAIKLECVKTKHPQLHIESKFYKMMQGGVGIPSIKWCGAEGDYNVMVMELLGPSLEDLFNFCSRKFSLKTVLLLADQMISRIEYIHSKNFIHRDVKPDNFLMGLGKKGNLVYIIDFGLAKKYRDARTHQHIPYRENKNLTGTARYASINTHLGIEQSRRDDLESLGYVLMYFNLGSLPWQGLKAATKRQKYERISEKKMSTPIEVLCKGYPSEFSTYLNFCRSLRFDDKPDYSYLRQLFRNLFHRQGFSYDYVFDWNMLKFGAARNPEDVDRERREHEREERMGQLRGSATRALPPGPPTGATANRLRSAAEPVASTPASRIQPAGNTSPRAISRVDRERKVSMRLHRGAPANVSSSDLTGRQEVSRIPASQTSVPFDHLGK
assay-method-text: radiometric filter-binding kinase assay, Kinase HotSpot
run-conditions: compound 0.5 µM; ATP 10 µM
List of residual activity values.
Enter your answer as a number in %; do not include the unit.

O=c1cc(N2CCOCC2)oc2c1ccc1ccccc12
92.5
c1ccc(-c2n[nH]c3c2oc2ccccc23)cc1
91.8
O=C(Nc1cccc(Nc2nccc(Nc3cccc(C(F)(F)F)c3)n2)c1)C1CC1
110
CCC(=O)Nc1ccc2ncnc(Nc3cccc(Br)c3)c2c1
98.2
N#C/C(=C(/N)Sc1ccc(N)cc1)c1ccccc1C(F)(F)F
95.9
CCCC(=O)Oc1ccc2[nH]c(C(=O)c3cc4ccccc4[nH]3)cc2c1
97.4

[in] // returns reported residual activity for input `O=C1NC(=O)/C(=C/c2ccc3c(c2)OC(F)(F)O3)S1`
[out] 96.9

[in] Find the recorded residual activity belonging to `Cc1ccc(Nc2nccc(N(C)c3ccc4c(C)n(C)nc4c3)n2)cc1S(N)(=O)=O` and report it.
[out] 97.5

[in] Name the reported residual activity value associated with the compound `COc1ccc(COc2ccc(Cc3cnc(N)nc3N)cc2OC)cc1`
[out] 97.1

[in] // query residual activity value for entry `Cc1ccc(S(=O)(=O)/C=C/C#N)cc1`
[out] 107

====

assay-target: CDK5 CDK5R1 p35 (human) (UniProt Q00535+Q15078)
assay-method-text: radiometric filter-binding kinase assay, Kinase HotSpot
run-conditions: compound 0.5 µM; ATP 10 µM
value-kind: residual activity

Below: 6 molecules and their reported residual activity.
O=C(Nc1cccc(Nc2nccc(Nc3cccc(C(F)(F)F)c3)n2)c1)C1CC1
105%
CCN(CC)C(=O)c1ccc(Nc2nc(OCC3CCCCC3)c3nc[nH]c3n2)cc1
77.1%
CCN(CC)CCNC(=O)c1c(C)[nH]c(/C=C2\C(=O)Nc3ccc(Cl)cc32)c1C
86.2%
O=C1Nc2ccc(Cl)cc2/C1=C/c1cc(Cl)c(O)c(Cl)c1
94.5%
Nc1ccc2ncnc(NCCc3ccc(Oc4ccccc4)cc3)c2c1
103%
CCOC(=O)c1c(C)[nH]c(/C=C2\C(=O)Nc3ccccc32)c1C
96.7%

[in] // residual activity lookup, key: `COc1ccc2c(c[n+](C)c3c4cc5c(cc4ccc23)OCO5)c1OC`
[out] 95.7%

[in] Form field: reported residual activity of `Oc1cccc(-c2nc(N3CCOCC3)c3oc4ncccc4c3n2)c1`
[out] 101%

[in] Any idea what its residual activity is? The molecule is `N#CC(C#N)=C(N)/C(C#N)=C/c1ccc(O)cc1`
[out] 91.9%

[in] Any idea what residual activity was measured for `CCC(=O)Nc1ccc2ncnc(Nc3cccc(Br)c3)c2c1` ?
[out] 100%

[in] Which value of residual activity has been reported for `O=C1NC(=O)C(c2cn(CCCn3ccnc3)c3ccccc23)=C1Nc1ccccc1` in the records?
[out] 91.4%

[in] Sample `Nc1ncnc2[nH]nc(Nc3ccc(F)cc3)c12` — what was its residual activity?
[out] 98.6%

[in] Can you look up the measured residual activity of CO[C@H]1CC2CC[C@@H](C)[C@@](O)(O2)C(=O)C(=O)N2CCCC[C@H]2C(=O)OC([C@H](C)C[C@@H]2CC[C@@H](O)[C@H](OC)C2)CC(=O)[C@H](C)/C=C(\C)[C@@H](O)[C@@H](OC)C(=O)[C@H](C)C[C@H](C)/C=C/C=C/C=C/1C (stereo not given in full) for me?
[out] 99.5%

[in] Param item = `Cc1[nH]c(/C=C2\C(=O)Nc3ccc(S(=O)(=O)N(C)c4cccc(Cl)c4)cc32)c(C)c1C(=O)N1CCN(C)CC1` ; retrieve measured residual activity.
[out] 95.8%

[in] What does the data say about its residual activity? Entry: `CC[n+]1c(/C=C/N(C)c2ccccc2)n(-c2ccccc2)c2ccc(-c3nc4ccccc4s3)cc21`
[out] 97.6%

====

Each record here notes measured residual activity.
assay-target: PRKCH (human) (UniProt P24723)
Sequence (P24723 whole entry, looked up): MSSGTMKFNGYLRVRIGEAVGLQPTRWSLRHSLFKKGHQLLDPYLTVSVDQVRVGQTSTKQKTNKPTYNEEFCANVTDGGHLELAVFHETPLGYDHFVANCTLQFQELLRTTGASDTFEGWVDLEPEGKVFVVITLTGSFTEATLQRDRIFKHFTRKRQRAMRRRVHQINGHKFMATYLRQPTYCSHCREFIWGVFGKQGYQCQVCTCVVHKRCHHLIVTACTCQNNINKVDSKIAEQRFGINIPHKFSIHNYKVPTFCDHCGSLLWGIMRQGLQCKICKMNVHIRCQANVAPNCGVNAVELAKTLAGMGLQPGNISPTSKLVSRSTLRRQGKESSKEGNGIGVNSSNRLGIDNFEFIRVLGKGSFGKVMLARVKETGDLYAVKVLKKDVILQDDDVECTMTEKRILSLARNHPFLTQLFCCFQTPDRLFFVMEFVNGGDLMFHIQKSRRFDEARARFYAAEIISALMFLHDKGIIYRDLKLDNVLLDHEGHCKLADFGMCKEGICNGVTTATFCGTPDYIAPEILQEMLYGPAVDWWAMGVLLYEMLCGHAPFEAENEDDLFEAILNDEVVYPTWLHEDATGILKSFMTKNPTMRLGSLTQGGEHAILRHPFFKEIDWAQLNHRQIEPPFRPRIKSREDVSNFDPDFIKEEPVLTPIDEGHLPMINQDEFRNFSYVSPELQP
assay-method-text: radiometric filter-binding kinase assay, Kinase HotSpot
run-conditions: compound 0.5 µM; ATP 10 µM

Example compounds with recorded residual activity:
COC[C@H]1OC(=O)c2coc3c2[C@@]1(C)C1=C(C3=O)[C@@H]2CCC(=O)[C@@]2(C)C[C@H]1OC(C)=O
100%
Cc1ccc(NC2=CC(=O)c3sc(C)nc3C2=O)cc1
89.4%
N#CC(C#N)=C(N)/C(C#N)=C/c1ccc(O)cc1
90.3%

[in] Which residual activity value belongs to `N#C/C(=C(/N)Sc1ccc(N)cc1)c1ccccc1C(F)(F)F` ?
[out] 96.4%
